The reported measurements were obtained from patent US20240368133A1.

Below is a list of entries, each paired with its recorded pIC50 value.
- TARGET SYSTEM: human AT2R fused to Cb23 (Homo sapiens, UniProt P50052)
- Sequence (P50052 whole entry, looked up, the tested form may be a part): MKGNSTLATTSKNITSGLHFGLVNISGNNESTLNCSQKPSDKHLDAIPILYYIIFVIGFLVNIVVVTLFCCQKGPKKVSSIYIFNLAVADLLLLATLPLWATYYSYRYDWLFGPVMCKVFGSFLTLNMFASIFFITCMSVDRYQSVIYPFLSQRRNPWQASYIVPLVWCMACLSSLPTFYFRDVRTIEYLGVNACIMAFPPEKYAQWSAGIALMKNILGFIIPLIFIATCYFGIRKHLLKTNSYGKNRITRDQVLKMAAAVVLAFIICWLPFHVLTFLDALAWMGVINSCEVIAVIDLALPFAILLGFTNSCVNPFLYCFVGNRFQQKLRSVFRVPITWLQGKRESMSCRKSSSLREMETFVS
- MEASUREMENT PROTOCOL: Radioligand binding assay, displacement of 125I-[Sar1, Ile8]-Angiotensin II, hAT2R Cb23
- REPORTED CONDITIONS: displacement of 125I-[Sar1, Ile8]-Angiotensin II, human AT2R fused to Cb23, HEK-293 cell membrane preparations; read-out: Binding affinity on hAT2R_Cb23 IC50
- Protocol: All synthesized ligands were evaluated in a radioligand assay by displacing ^125I-[Sar1, Ile8]-Angiotensin II (Perkin Elmer, NEX248050UC) from human AT2R fused to Cb23 or human/rodent/cynomolgus/minipig/dog WT AT2R in HEK-293 cells membrane preparations, using C21 (Vicore Pharma) and Angiotensin II (endogenous ligand) as reference. The affinity was determined using an eight-point dose-response curve, each point performed in duplicates. […]
pIC50 here: minus log base 10 of the concentration, concentration in moles per litre.

*Q* // pIC50 lookup, key: `CC(C)Cc1ccc(-c2nn[nH]n2)c(N2CCN(Cc3cnc4ccccn34)CC2)c1`
*A* 6.65
